Values compiled from ChEMBL document CHEMBL1122229.

# MEASURED_ON: Adrenergic receptor alpha-2 (Rattus norvegicus) (UniProt P22086+P19328+P22909)
# ASSAY_NOTES: In vitro presynaptic antagonist potency at alpha-2 adrenergic receptor in rat or mouse vas deferens relative to compound 5 (RX781094)
# Type: functional, tissue-based
PARAMETER: Antagonist potency

# MOLECULE, TEST_RESULT
rows = [
    ("c1ccc2c(c1)OCC(Cn1ccnc1)O2 (stereo not drawn)", 0.013),
    ("Cc1cccc2c1OC(C1=NCCN1)CO2 (stereo not drawn)", 0.5),
    ("c1ccc2c(c1)OCC(c1ncc[nH]1)O2 (stereo not drawn)", 0.001),
    ("CCn1ccnc1CC1COc2ccccc2O1 (stereo not drawn) [IMILOXAN]", 0.02),
    ("c1ccc2c(c1)OCC(c1nc3ccccc3[nH]1)O2 (stereo not drawn)", 0.0003),
    ("c1ccc2c(c1)OCC(CC1=NCCN1)O2 (stereo not drawn)", 0.045),
    ("c1ccc2cc3c(cc2c1)OCC(C1=NCCN1)O3 (stereo not drawn)", 0.001),
    ("Cc1ccc2c(c1)OCC(C1=NCCN1)O2 (stereo not drawn)", 0.08),
]
